What Pre-emergence action at 1280 g/ha against STEME in % was measured for each of the following?
- Tested on: STEME
- ASSAY_DETAILS: Herbicidal pre-emergence action 2b (doubly sown, 1280 g/ha)
- Assay type: in vivo, Stellaria media
- REPORTED_CONDITIONS: doubly sown pots, dosage 1280 g/ha, visual scoring after about 3 weeks
Quick reminder: number only, in %, skip the unit.

Assign Pre-emergence action at 1280 g/ha against STEME in % to the following record: CCOC(=O)COc1nn(-c2cnccn2)c(-c2ccc(F)nc2)c1Br [Example I-52] 100

Indicate the recorded Pre-emergence action at 1280 g/ha against STEME in % value for this molecule: COC(=O)C(C)Oc1nn(-c2cnccn2)c(-c2ccc(F)c(F)c2)c1C#N (racemic) [Example I-22] 100

Give the value of Pre-emergence action at 1280 g/ha against STEME in % reported for the following: N#CCOC(=O)COc1nn(-c2cnccn2)c(-c2ccc(F)nc2)c1Br [Example I-65] 100

Supply Pre-emergence action at 1280 g/ha against STEME in % value. Item: CCOC(=O)COc1nn(-c2cnccn2)c(-c2ccc(F)nc2)c1[N+](=O)[O-] [Example I-50] 90

====

- Test system: LOLRI
- ASSAY_DETAILS: Herbicidal post-emergence action 1a (greenhouse pots, visual rating)
- Format: in vivo, Lolium rigidum
- REPORTED_CONDITIONS: Dosage 80 g/ha; rated visually about 3 weeks after treatment; 100% = plants have died, 0% = like control plants
So I've got a bunch of molecules here, and I need their Post-emergence action against LOLRI in % values.
Only the number, expressed in %, is required.

Give LOLRI Post-emergence action against LOLRI in % for the following molecule: C[C@@H](Oc1nn(-c2cnccn2)c(-c2cncc(F)c2)c1Br)C(=O)O 100

# lookup: LOLRI Post-emergence action against LOLRI in %, key = COC(=O)[C@@H](C)Oc1nn(-c2cnccn2)c(-c2cccc(F)c2)c1Br 90

Fetch value of Post-emergence action against LOLRI in % on LOLRI for CCOC(=O)[C@@H](C)Oc1nn(-c2cnccn2)c(-c2cncc(F)c2)c1Br . 100

Consider the molecule COC(=O)COc1nn(-c2cnccn2)c(-c2ccc(F)c(F)c2)c1Br tested on LOLRI; state its Post-emergence action against LOLRI in %. 90

Please look at COC(=O)[C@@H](C)Oc1nn(-c2cnccn2)c(-c2ccc(F)c(F)c2)c1Br and tell me its recorded Post-emergence action against LOLRI in % on LOLRI. 90

Consider the molecule COC(=O)COc1nn(-c2cnccn2)c(-c2cncc(F)c2)c1Br tested on LOLRI; state its Post-emergence action against LOLRI in %. 80

Report value: Post-emergence action against LOLRI in %, system: LOLRI, molecule: COC(=O)C(C)Oc1nn(-c2cnccn2)c(-c2ccc(F)c(F)c2)c1C#N (racemic) 80

Give measured Post-emergence action against LOLRI in % for COC(=O)[C@@H](C)Oc1nn(-c2cnccn2)c(-c2ccc(F)c(F)c2)c1C#N (LOLRI). 90

Look up LOLRI data: Post-emergence action against LOLRI in % of COC(=O)[C@@H](C)Oc1nn(-c2cnccn2)c(-c2cncc(F)c2)c1Br , then report it. 90

Using LOLRI as the test system, report measured Post-emergence action against LOLRI in % of C=CCOC(=O)C(C)Oc1nn(-c2cnccn2)c(-c2ccc(F)nc2)c1Br (racemic) . 80

Please indicate recorded Post-emergence action against LOLRI in % of COC(=O)[C@@H](C)Oc1nn(-c2cnccn2)c(-c2ccc(F)nc2)c1Br measured with LOLRI. 90

System LOLRI. Read-out Post-emergence action against LOLRI in %. Item COC(=O)[C@@H](C)Oc1nn(-c2cnccn2)c(-c2cncc(F)c2)c1Cl . Report value. 90

Output reported Post-emergence action against LOLRI in % of the molecule C[C@@H](Oc1nn(-c2cnccn2)c(-c2cncc(F)c2)c1Cl)C(=O)O on LOLRI. 90

====

Exercise: for every item that follows, state its recorded Post-emergence action against AMARE in %.
- Test system: AMARE
- ASSAY_DETAILS: Herbicidal post-emergence action 1a (greenhouse pots, visual rating)
- Assay type: in vivo, Amaranthus retroflexus
- REPORTED_CONDITIONS: dosage 320 g/ha, visual rating about 3 weeks after treatment
Please state the figure in %; there is no need to write the unit.

Could you please provide reported Post-emergence action against AMARE in % for COC(=O)[C@H](C)Oc1nn(-c2cnccn2)c(-c2cccc(F)c2)c1Br ? Thanks! 90

Supply reported Post-emergence action against AMARE in % belonging to this compound: COC(=O)[C@@H](C)Oc1nn(-c2cnccn2)c(-c2ccnc(F)c2)c1Br 80

Output measured Post-emergence action against AMARE in % for this item: O=C(O)COc1nn(-c2cnccn2)c(-c2cccc(F)c2)c1Br 90

For the compound COC(=O)C(C)Oc1nn(-c2cnccn2)c(-c2ccc(F)nc2)c1Br (racemic) , give its reported Post-emergence action against AMARE in %. 80

Indicate the recorded Post-emergence action against AMARE in % value for this compound: COC(=O)COc1nn(-c2cnccn2)c(-c2cncc(F)c2)c1Br 80

In one line, give reported Post-emergence action against AMARE in % of the entry COC(=O)[C@@H](C)Oc1nn(-c2cnccn2)c(-c2ccc(F)nc2)c1C#N . 80

For COC(=O)[C@@H](C)Oc1nn(-c2cnccn2)c(-c2ccc(F)c(F)c2)c1Br , write its Post-emergence action against AMARE in %. 90

State, in one line, measured Post-emergence action against AMARE in % of COC(=O)CNC(=O)[C@@H](C)Oc1nn(-c2cnccn2)c(-c2ccc(F)nc2)c1Br 90

Quote Post-emergence action against AMARE in % reported for O=C(O)COc1nn(-c2cnccn2)c(-c2cncc(F)c2)c1Br please. 90

Write down Post-emergence action against AMARE in % measured for item CCOC(=O)COc1nn(-c2cnccn2)c(-c2cncc(F)c2)c1Cl 90

State its Post-emergence action against AMARE in %: CCOC(=O)COc1nn(-c2cnccn2)c(-c2cncc(F)c2)c1F 80

Using the record for C[C@@H](Oc1nn(-c2cnccn2)c(-c2cncc(F)c2)c1Cl)C(=O)O , state its measured Post-emergence action against AMARE in %. 90

Specify Post-emergence action against AMARE in % for COC(=O)[C@@H](C)Oc1nn(-c2cnccn2)c(-c2ccc(F)nc2)c1Br and stop. 80

State its Post-emergence action against AMARE in % for this compound: COC(=O)[C@@H](C)Oc1nn(-c2cnccn2)c(-c2cncc(F)c2)c1C#N 90

Return reported Post-emergence action against AMARE in %. Input compound: COC(=O)C(C)Oc1nn(-c2cnccn2)c(-c2cncc(F)c2)c1Br (racemic) 80

Give Post-emergence action against AMARE in % for COC(=O)[C@@H](C)Oc1nn(-c2cnccn2)c(-c2ccc(F)c(F)c2)c1C#N 80

Tell me its Post-emergence action against AMARE in % given COC(=O)[C@@H](C)Oc1nn(-c2cnccn2)c(-c2cncc(F)c2)c1Br as the entry. 80

Give a short answer stating reported Post-emergence action against AMARE in % for CCOC(=O)COc1nn(-c2cnccn2)c(-c2cncc(F)c2)c1Br . 90

====

- Test system: POLCO
- ASSAY_DETAILS: Herbicidal post-emergence action 1a (greenhouse pots, visual rating)
- Assay type: in vivo, Polygonum convolvulus
- REPORTED_CONDITIONS: dosage 320 g/ha, visual rating about 3 weeks after treatment
OBSERVATION_TYPE: Post-emergence action against POLCO in %

Param request: Post-emergence action against POLCO in % | system POLCO | item COC(=O)[C@@H](C)Oc1nn(-c2cnccn2)c(-c2ccc(F)nc2)c1Br 90%

Given COC(=O)[C@@H](C)Oc1nn(-c2cnccn2)c(-c2cncc(F)c2)c1Cl , report its Post-emergence action against POLCO in % on POLCO. 90%

Jot down Post-emergence action against POLCO in % (POLCO) of COC(=O)[C@@H](C)Oc1nn(-c2cnccn2)c(-c2ccc(F)c(F)c2)c1Br . 100%

Give measured Post-emergence action against POLCO in % for CCOC(=O)COc1nn(-c2cnccn2)c(-c2ccc(F)nc2)c1Cl (POLCO). 90%

====

Record form. Attribute: Pre-emergence action at 1280 g/ha against MATIN in %. Fill in for each entry.
- Tested on: MATIN
- ASSAY_DETAILS: Herbicidal pre-emergence action 2b (doubly sown, 1280 g/ha)
- Format: in vivo, Matricaria inodora
- REPORTED_CONDITIONS: doubly sown pots, dosage 1280 g/ha, visual scoring after about 3 weeks

Give the reported value of Pre-emergence action at 1280 g/ha against MATIN in % for this record: COC(=O)[C@@H](C)Oc1nn(-c2cnccn2)c(-c2ccnc(F)c2)c1Br [Example I-34] 100%

Tell us which Pre-emergence action at 1280 g/ha against MATIN in % value is on record for CCOC(=O)COc1nn(-c2nccnc2Cl)c(-c2ccc(F)nc2)c1Br [Example I-71] 100%

Recall and state the measured Pre-emergence action at 1280 g/ha against MATIN in % for O=C(COc1nn(-c2cnccn2)c(-c2ccc(F)nc2)c1Br)OCc1ccccn1 [Example I-70] . 100%

Fill in Pre-emergence action at 1280 g/ha against MATIN in % for record COC(=O)C(C)Oc1nn(-c2cnccn2)c(-c2ccnc(F)c2)c1Br (racemic) [Example I-10] 90%

State, in one line, measured Pre-emergence action at 1280 g/ha against MATIN in % of COCCOCCOC(=O)COc1nn(-c2cnccn2)c(-c2ccc(F)nc2)c1Br [Example I-67] 100%

Tell me measured Pre-emergence action at 1280 g/ha against MATIN in % for COCCOC(=O)COc1nn(-c2cnccn2)c(-c2ccc(F)nc2)c1Br [Example I-68] please. 100%

Tell me its Pre-emergence action at 1280 g/ha against MATIN in % given C[C@H](Oc1nn(-c2cnccn2)c(-c2cncc(F)c2)c1Br)C(=O)O [Example I-37] as the entry. 100%

State its Pre-emergence action at 1280 g/ha against MATIN in %: COC(=O)[C@H](C)Oc1nn(-c2cnccn2)c(-c2ccc(F)nc2)c1Br [Example I-18] 90%
